tested on: CCRIS mutagenicity, Ames/micronucleus/aberration tests; assay: CCRIS mutagenicity studies; details: Test System: MOUSE LYMPHOMA; Strain/Indicator: L5178Y (TK+/TK-); Metabolic Activation: RAT, LIVER, S-9, AROCLOR 1254; Method: SUSPENSION/PLATE
Active and inactive are the calls of the source. How the calls were made is not given here.
Pick one and only one: class 1 for active, class 0 for inactive

Which outcome was entered for the molecule "Nc1ncc([N+](=O)[O-])s1" in this test?
class 1

Which outcome was entered for the molecule "ClC/C=C\CCl" in this test?
class 1

Which outcome was entered for the molecule "[O]=[Mo](=[O])=[O]" in this test?
class 1

Which outcome was entered for the molecule "Nc1ccc(-c2ccc(N)cc2)cc1" in this test?
class 1

Which outcome was entered for the molecule "CCCNC(=O)NS(=O)(=O)c1ccc(Cl)cc1" in this test?
class 0

Which outcome was entered for the molecule "CN(C)c1ccc(CCO)cc1" in this test?
class 1

Which outcome was entered for the molecule COc1cc([N+](=O)[O-])ccc1N=NC(C(C)=O)C(=O)Nc1ccccc1OC (stereo not given) in this test?
class 0

Which outcome was entered for the molecule "C[C@]12C=CC(=O)C=C1CC[C@@H]1[C@@H]2C(=O)C[C@@]2(C)[C@H]1CC[C@]2(O)C(=O)CO" in this test?
class 0

Which outcome was entered for the molecule "COc1ccc(C(c2ccc(OC)cc2)C(Cl)(Cl)Cl)cc1" in this test?
class 1

Which outcome was entered for the molecule "NCc1cccc(CN)c1" in this test?
class 0

Which outcome was entered for the molecule "C[CH2][Ge]([Cl])([CH2]C)[CH2]C" in this test?
class 0

Which outcome was entered for the molecule "CCCCC/C=C\C/C=C\CCCCCCCC(=O)O" in this test?
class 0

Which outcome was entered for the molecule "O=c1[nH]cc(N(CCCl)CCCl)c(=O)[nH]1" in this test?
class 1

Which outcome was entered for the molecule "OC[C@H]1O[C@@](CO)(O[C@H]2O[C@H](CO)[C@@H](O)[C@H](O)[C@H]2O)[C@@H](O)[C@@H]1O" in this test?
class 0

Which outcome was entered for the molecule "C=CC(=O)OCCC" in this test?
class 1

---

tested on: CCRIS mutagenicity, Ames/micronucleus/aberration tests; experiment: CCRIS mutagenicity studies; conditions: Test System: AMES SALMONELLA TYPHIMURIUM; Strain/Indicator: TA100; Metabolic Activation: RAT, LIVER, S-9, PHENOBARBITAL; Method: PREINCUBATION
Activity calls are given as the source filed them. How the calls were made is not given here.
Pick one and only one: yes (active), no (inactive)

Which outcome was entered for the compound "Cc1nn(C)c(N)c1C(=O)c1ccccc1F" in this test?
yes

Which outcome was entered for the compound "O=S(=O)(O)c1ccc2cc(Oc3ccc4cc(S(=O)(=O)O)ccc4c3)ccc2c1" in this test?
no

Which outcome was entered for the compound "CC(=O)CN(CC(C)=O)N=O" in this test?
yes

---

tested on: CCRIS mutagenicity, Ames/micronucleus/aberration tests; experiment: CCRIS mutagenicity studies; details: Test System: AMES SALMONELLA TYPHIMURIUM; Strain/Indicator: TA98; Metabolic Activation: HAMSTER, LIVER, S-9, AROCLOR 1254 (10%); Method: STANDARD PLATE
Active and inactive are the calls of the source. How the calls were made is not given here.
Pick one and only one: active, inactive

Which outcome was entered for the molecule "ClC/C=C\CCl" in this test?
active

Which outcome was entered for the molecule "CCN(CC)c1ccc(C(=C2C=CC(=[N+](CC)CC)C=C2)c2ccc(N(CC)CC)cc2)cc1" in this test?
inactive

Which outcome was entered for the molecule CCCCC(CC)COC(=O)c1ccc(N(C)C)c([N+](=O)[O-])c1 (configuration not stated) in this test?
active

Which outcome was entered for the molecule "C[CH2][Ge]([Cl])([CH2]C)[CH2]C" in this test?
inactive

Which outcome was entered for the molecule "Oc1ccccc1-c1ccccc1" in this test?
inactive

Which outcome was entered for the molecule "CCN(CC)c1ccc2c(-c3ccc(S(=O)(=O)O)cc3S(=O)(=O)[O-])c3ccc(=[N+](CC)CC)cc-3oc2c1" in this test?
active

Which outcome was entered for the molecule "C[C@]12C=CC(=O)C=C1CC[C@@H]1[C@@H]2C(=O)C[C@@]2(C)[C@H]1CC[C@]2(O)C(=O)CO" in this test?
inactive

---

test system: CCRIS mutagenicity, Ames/micronucleus/aberration tests; assay: CCRIS mutagenicity studies; details: Test System: E. COLI; Strain/Indicator: WP2 UVRA; Metabolic Activation: NONE; Method: PREINCUBATION
Active and inactive are the calls of the source. No rule for the calls is given here.
Pick one and only one: active, inactive

Which outcome was entered for the compound "CCC(C)=O" in this test?
inactive

Which outcome was entered for the compound "ONc1ccc2c(c1)Cc1ccccc1-2" in this test?
active

Which outcome was entered for the compound "O=C(O)c1cc2ccccc2cc1O" in this test?
inactive

Which outcome was entered for the compound "C#CCNC(=NCCSCc1nc[nH]c1C)NC#N" in this test?
inactive

Which outcome was entered for the compound "COc1cc(OC)c(Cl)c(-n2c(-c3ccccc3)cc(=O)c(C)c2-c2ccc(F)cc2)c1" in this test?
inactive

Which outcome was entered for the compound COC(=O)C1=C(C)NC(C)=C(C(=O)OCCc2ccc(N3CCN(C(c4ccccc4)c4ccccc4)CC3)cc2)C1c1cccc([N+](=O)[O-])c1 (centres undefined) in this test?
inactive

Which outcome was entered for the compound "Nc1ccc(O)c(C(=O)O)c1" in this test?
inactive

Which outcome was entered for the compound "ONc1ccc(-c2ccccc2)cc1" in this test?
active

Which outcome was entered for the compound "COc1ccc2c(CBr)cc(=O)oc2c1" in this test?
inactive

Which outcome was entered for the compound "O=C(CBr)c1ccc(-c2ccccc2)cc1" in this test?
inactive

Which outcome was entered for the compound "CCN(N=O)c1ccccc1" in this test?
inactive

Which outcome was entered for the compound "CCCC(=O)Nc1ncnc2c1ncn2[C@@H]1O[C@@H]2COP(=O)(O)O[C@H]2[C@H]1OC(=O)CCC" in this test?
inactive

Which outcome was entered for the compound CC(O)C(C)O (centres undefined) in this test?
inactive

Which outcome was entered for the compound "CCOCCO" in this test?
inactive

---

tested on: CCRIS mutagenicity, Ames/micronucleus/aberration tests; assay: CCRIS mutagenicity studies; conditions: Test System: AMES SALMONELLA TYPHIMURIUM; Strain/Indicator: TA98(1,8-DNP6); Metabolic Activation: NONE; Method: STANDARD PLATE
Activity calls are given as the source filed them. How the calls were made is not given here.
Pick one and only one: 1.0 for active, 0.0 for inactive

Which outcome was entered for the molecule "CC(=O)ON(C(C)=O)c1ccc(Sc2ccccc2)cc1" in this test?
1.0

Which outcome was entered for the molecule "O=Nc1ccc2ccc3cccc4ccc1c2c34" in this test?
1.0

Which outcome was entered for the molecule "O=[N+]([O-])c1ccc2c(ccc3cc([N+](=O)[O-])ccc32)c1" in this test?
1.0

Which outcome was entered for the molecule "O=c1oc2ccc([N+](=O)[O-])cc2c2ccccc12" in this test?
1.0

Which outcome was entered for the molecule "O=[N+]([O-])c1ccc2c3c(cccc13)-c1ccccc1-2" in this test?
1.0

Which outcome was entered for the molecule "Nc1ccc(/C=C/c2ccccc2)cc1" in this test?
0.0

Which outcome was entered for the molecule "O=[N+]([O-])c1ccc(Sc2ccccc2)cc1" in this test?
1.0

Which outcome was entered for the molecule "CN(C)CCCNc1c2ccccc2nc2ccc([N+](=O)[O-])cc12" in this test?
1.0

Which outcome was entered for the molecule "Nc1ccc(-c2ccc(N)cc2)cc1" in this test?
0.0

Which outcome was entered for the molecule "O=Cc1ccc([N+](=O)[O-])o1" in this test?
1.0

Which outcome was entered for the molecule "O=[N+]([O-])c1cc([N+](=O)[O-])c2cccc3c2c1-c1ccccc1-3" in this test?
1.0

Which outcome was entered for the molecule "O=[N+]([O-])c1ccc2c(ccc3ccccc32)c1" in this test?
1.0

Which outcome was entered for the molecule "O=[N+]([O-])c1ccc2c(c1)c([N+](=O)[O-])cc1ccccc12" in this test?
1.0

Which outcome was entered for the molecule "Nc1ccc(-c2ccc(N)c(Br)c2)cc1Br" in this test?
1.0

Which outcome was entered for the molecule "Nc1ccc(-c2ccc(N)c(F)c2)cc1F" in this test?
1.0

---

tested on: CCRIS mutagenicity, Ames/micronucleus/aberration tests; assay: CCRIS mutagenicity studies; settings: Test System: AMES SALMONELLA TYPHIMURIUM; Strain/Indicator: TA100; Metabolic Activation: NONE; Method: STANDARD PLATE
Activity calls are given as the source filed them. How the calls were made is not given here.
Pick one and only one: 1.0 (active), 0.0 (inactive)

Which outcome was entered for the compound "O=P(O)(O)O" in this test?
0.0

Which outcome was entered for the compound O=[N+]([O-])c1ccc(CN2C3c4ccccc4-c4ccccc4C32)cc1 (configuration not stated) in this test?
1.0

Which outcome was entered for the compound "C=C1CC[C@H]2[C@@H](c3c(C)c(O)c4c(c31)C(=O)[C@@H](C)C4)C2(C)C" in this test?
0.0

Which outcome was entered for the compound "CC(=O)c1cccn1[N+](=O)[O-]" in this test?
1.0

Which outcome was entered for the compound "CC1(OO)c2ccccc2-c2ccccc21" in this test?
1.0

Which outcome was entered for the compound "Oc1ccc2c(O)c3ccccc3cc2c1O" in this test?
0.0

Which outcome was entered for the compound "Oc1ccccc1-c1ccccc1" in this test?
0.0

Which outcome was entered for the compound Cc1ccc2cc3c(c4c2c1CC4)C1NC1c1ccccc1-3 (configuration not stated) in this test?
1.0

Which outcome was entered for the compound "COc1ccc2cc1Oc1ccc(cc1)C[C@H]1c3cc(c(OC)cc3CCN1C)Oc1c(OC)c(OC)cc3c1[C@H](C2)N(C)CC3" in this test?
0.0

Which outcome was entered for the compound C=CCOc1ccccc1OCC(O)CNC(C)C (configuration not stated) in this test?
0.0

Which outcome was entered for the compound "Nc1ncnc2c1ncn2[C@H]1C[C@H](O)[C@@H](CO)O1" in this test?
0.0

Which outcome was entered for the compound "NNc1ccccc1" in this test?
1.0
